# System: CAKI-1 renal
# Test method notes: NCI tumour cell line growth inhibition, 48 h
Assay metric: GI50

O=C1c2cccc3c(N4CCN(c5ccc6c7c(cccc57)C(=O)N(CCN5CCNCC5)C6=O)CC4)ccc(c23)C(=O)N1CCN1CCNCC1 = 14.7 µM
C=CCSc1n[nH]c(-c2cccs2)n1 = > 100 µM
CCOC(=O)C(=Cc1ccc(Br)cc1)C(=O)OCC = 1.76 µM

The measured GI50 associated with `COc1cc2cc(C(=O)O)[nH]c2cc1OCc1ccccc1` reads > 100 µM

The measured GI50 associated with `O=C(Oc1ccc([N+](=O)[O-])cc1)N1CCC(C(O)(c2ccc3c(c2)OCO3)c2ccc3c(c2)OCO3)CC1` reads > 100 µM

The measured GI50 associated with `Cc1ccnc2c1NC(=O)c1cccnc1N2C1CC1` reads > 100 µM

The measured GI50 associated with O=C1Nc2ccccc2SC1C1SC(=S)N(Cc2ccccc2)C1=O (stereo not given) reads 4.53 µM

The measured GI50 associated with `N#Cc1ccc(-n2cnc(NC(=O)[C@H]3CCN(C#N)C3)c2)cc1` reads 2.48 µM

The measured GI50 associated with `O=C(c1cccs1)c1c(C(F)(F)F)n([O-])c2cc(F)c(F)cc2[n+]1=O` reads 1.25 µM

The measured GI50 associated with `C[C@]12CC[C@@H]3c4ccc(O)cc4CC[C@H]3[C@@H]1CC[C@@H]2NS(=O)(=O)c1cccc(Br)c1` reads 2.99 µM

====

# Test system: BT-549 breast
# Test method notes: NCI tumour cell line growth inhibition, 48 h
Everything with TGI lower than 10 µM is FALSE; everything else, including exactly 10 µM, is TRUE.

A selection of reference data follows.
O=C(c1nsc(Cl)c1Cl)N1CCCCC1 = TRUE
CCCCCCCCCCCCCCCCCCNc1ccn(C2OC(CO)C(OP(=O)(O)OCC3CCC(n4ccc(N)nc4=O)O3)C2O)c(=O)n1 (stereo unspecified) = TRUE
Cc1c(-c2ccccc2)n(C)c2cn[nH]c(=O)c12 = TRUE
CC(O[Si](C)(C)C(C)(C)C)[C@H](NC(=O)OCC(Cl)(Cl)Cl)C(=O)O (stereo partly specified) = TRUE
Nc1nc(Nc2ccc(Cl)cc2)sc1C(=O)c1cc2ccccc2oc1=O = TRUE

Check if TGI >= 10 µM (inclusive). Item: `Cc1ccc(NC2=C(Cl)C(=O)c3nc(C)ccc3C2=O)cc1`
FALSE

Check if TGI >= 10 µM (inclusive). Item: `C[C@]12CC[C@@H]3c4ccc(O)cc4CC[C@H]3[C@@H]1CC[C@@H]2NS(=O)(=O)c1cccc(Br)c1`
TRUE

Check if TGI >= 10 µM (inclusive). Item: `O=C(O)[C@@H]1C[C@@H](O)CN1`
TRUE

====

# Tested on: HCT-15 colon
# Test method notes: NCI tumour cell line growth inhibition, 48 h; in the data active = GI50 below about 0.43 µM; inactive = the rest
Could you please pick one outcome from this set? active, inactive

A selection of reference data follows.
O=C1Nc2ccccc2SC1C1SC(=S)N(Cc2ccccc2)C1=O (stereo unspecified) = inactive
Cc1ccc(NC2=C(Cl)C(=O)c3nc(C)ccc3C2=O)cc1 = inactive
C[C@]12CC[C@@H]3c4ccc(O)cc4CC[C@H]3[C@@H]1CC[C@@H]2NS(=O)(=O)c1cccc(Br)c1 = inactive
COC(=O)c1c2c(c(C)[n+]([O-])c1C)C(=O)C(NCc1ccc(F)c(Cl)c1)=CC2=O = inactive
C[C@]12CC[C@H]3[C@@H](C[C@@H]4SC(Nc5cccc(F)c5)=N[C@@]45CC(=O)CC[C@]35C)[C@@H]1CCC2=O = inactive
N#CC1=C(N)Oc2c(sc3c(F)cccc23)C1c1ccc([N+](=O)[O-])cc1 (stereo unspecified) = active
CCOC(=O)C(=Cc1ccc(Br)cc1)C(=O)OCC = inactive
COc1ccc(OC)c(-c2nc3sccn3c2/C=C2/C(=O)Nc3ccccc32)c1 = inactive

# lookup: test call for `CCN(C)S(=O)(=O)Nc1cccc(Nc2ncnc3cc(NC(=O)CCl)ccc23)c1Cl`
inactive

# lookup: test call for `N#Cc1cccc(Nc2nccc(-c3cnn4ncccc34)n2)c1`
active

# lookup: test call for `N#Cc1ccc(-n2cnc(NC(=O)[C@H]3CCN(C#N)C3)c2)cc1`
inactive

# lookup: test call for COCCOC(C)C(/C=N/NC(N)=S)=N/NC(N)=S (stereo unspecified)
inactive

# lookup: test call for `NC(=O)c1c(OCc2c(F)cc(Br)cc2F)nsc1NC(=O)NCCCCN1CCCC1`
inactive

# lookup: test call for `C=CCSc1n[nH]c(-c2cccs2)n1`
inactive

# lookup: test call for O=c1cccc(C#CCCCCOC2CCCO2)o1 (stereo unspecified)
inactive

# lookup: test call for `COc1cc2cc(C(=O)O)[nH]c2cc1OCc1ccccc1`
inactive

# lookup: test call for `O=C(Oc1ccc([N+](=O)[O-])cc1)N1CCC(C(O)(c2ccc3c(c2)OCO3)c2ccc3c(c2)OCO3)CC1`
inactive

# lookup: test call for `O=C(c1cccs1)c1c(C(F)(F)F)n([O-])c2cc(F)c(F)cc2[n+]1=O`
inactive

# lookup: test call for `Clc1ccc2c(NCCCN3CCN(c4nc(-n5ccnc5)nc5ccccc45)CC3)ccnc2c1`
inactive

# lookup: test call for `COc1ccc2cc(C(=O)/C=C/c3ccc(OC)c(OC)c3)ccc2c1`
inactive

# lookup: test call for `Cc1cc(NC(=O)CCc2ccc(N3C(N)=NC(N)=NC3(C)C)cc2)ccc1S(=O)(=O)F`
inactive
